These data points were gathered from PubChem BioAssay (Tox21).

target: Cytochrome P450 2C19 (Homo sapiens); experiment: Cytochrome P450 Family 2 Subfamily C Member 19 (CYP2C19) small molecule antagonists: luciferase reporter qHTS assay (AID 1671197); details: P450-Glo CYP2C19 enzyme, luciferin luminescence, 1 h; series mostly up to 115 µM; also: nearly all actives have a fitted effect of over 65% in size
Records with an inconclusive call do not appear. Activity calls are given as the source filed them. Calls follow the shape of the dose curve; as a rule, active = well fitted inhibition curve with a large enough effect in the repeat runs; inconclusive = weak or mixed curves; inactive = no such curve, though single readings can be large or run the other way.
Lab note: assign the record to one of active, inactive

- CCO[Si](OCC)(OCC)OCC: inactive
- CCCC1CCC(=O)CC1: inactive
- O=S(=O)(O)c1ccc(N=Nc2c(O)ccc3ccccc23)cc1: active

### Prompt Hey, what did the test say about CCC(C)(CCC(C)C)C(=O)[O][Sn]([CH3])([CH3])[O]C(=O)C(C)(CC)CCC(C)C (stereo not drawn) ?
### Response active

### Prompt Hey, what did the test say about CN(C)C(=O)COC(=O)Cc1ccc(OC(=O)c2ccc(N=C(N)N)cc2)cc1 ?
### Response inactive

----------
target: Nuclear receptor subfamily 1 group I member 2 (Homo sapiens) (UniProt O75469); test: Human pregnane X receptor (PXR) small molecule agonists, qHTS assay (AID 1346982); settings: PXR-Luc HepG2, CYP3A4 luciferase reporter, 24 h; series mostly up to 92.4 µM; also: nearly all actives have a fitted effect of over 35% in size; as to activation: % is scaled to controls: 0 for no effect and ±100 for the full control effect
Sequence (O75469 whole entry, looked up): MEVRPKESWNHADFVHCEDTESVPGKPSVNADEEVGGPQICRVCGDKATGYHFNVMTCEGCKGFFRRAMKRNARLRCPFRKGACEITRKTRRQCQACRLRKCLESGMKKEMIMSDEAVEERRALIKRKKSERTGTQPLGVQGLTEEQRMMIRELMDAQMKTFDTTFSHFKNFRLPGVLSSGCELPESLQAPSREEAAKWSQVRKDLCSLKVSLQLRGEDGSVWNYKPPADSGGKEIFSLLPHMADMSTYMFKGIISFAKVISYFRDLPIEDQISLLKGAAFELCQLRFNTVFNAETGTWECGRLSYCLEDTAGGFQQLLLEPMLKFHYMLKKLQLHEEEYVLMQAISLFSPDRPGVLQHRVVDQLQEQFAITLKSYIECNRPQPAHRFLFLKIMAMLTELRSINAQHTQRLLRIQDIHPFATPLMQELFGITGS
Results filed as inconclusive are left out. Activity calls are given as the source filed them. The call rests on the fitted dose curve; in most records, active means well fitted activation curve with a large enough effect in the repeat runs; inconclusive means weak or mixed curves; inactive means no such curve, though single readings can be large or run the other way.
Lab note: assign the record to one of active, inactive

* CN1CCCCC1CCN1c2ccccc2Sc2ccc(S(C)=O)cc21 (stereo not drawn) | active
* CC1=CCC(=C(C)C)CC1 | active

### Prompt Hey, what did the test say about Cc1c(N)cccc1C(F)(F)F ?
### Response inactive

----------
experiment: qHTS assay to test for compound auto fluorescence at 460 nm (blue) in HepG2 cells (AID 720687); conditions: autofluorescence 405/460 nm, 1 h; series mostly up to 91.3 µM; also: % is scaled to controls: 0 for no effect and ±100 for the full control effect
Calls of active or inactive are those of the source. The call rests on the fitted dose curve; in most records, active means well fitted curve in the direction sought with a large enough effect in the repeat runs; inconclusive means weak or mixed curves; inactive means flat fitted curve, though single readings scatter.
Parameter Measured: fluorescence, % of fluorescent control

Here are 5 compounds together with their reported answers.
• CC(C)CCCCCOC(=O)CCS = inactive
• CCOC(=O)Cn1cccc1-c1nc(-c2ccc(OC)cc2)c(-c2ccc(OC)cc2)s1 = inactive
• CC1(C)CCC[C@]2(C)[C@H]3CCO[C@]3(C)CC[C@@H]12 = inactive
• CC(C)(C)C1CCC(=O)CC1 = inactive
• CN(C)c1ccc(C(=C2C=CC(=[N+](C)C)C=C2)c2ccc(N(C)C)cc2)cc1 = inactive

### Prompt Consider the compound O=C1CCc2ccc(OCCCCN3CCN(c4cccc(Cl)c4Cl)CC3)cc2N1 . State its measured fluorescence, % of fluorescent control.
### Response inactive

### Prompt Consider the compound CC(C)OC(=O)C(O)(CC(=O)O)CC(=O)O . State its measured fluorescence, % of fluorescent control.
### Response inactive

### Prompt Consider the compound CCN1C(=O)c2ccccc2C1Nc1ccc(OCCN2CCCCC2)cc1 (stereo unspecified) . State its measured fluorescence, % of fluorescent control.
### Response inactive

### Prompt Consider the compound CCCCCCCCCCCCCC[N+](C)(C)C . State its measured fluorescence, % of fluorescent control.
### Response inactive

### Prompt Consider the compound Cc1c(C)c2c(c(C)c1O)CC[C@@](C)(CCC[C@H](C)CCC[C@H](C)CCCC(C)C)O2 . State its measured fluorescence, % of fluorescent control.
### Response inactive

### Prompt Consider the compound COC1=C(OC)C(=O)C(CCCCCCCCCCO)=C(C)C1=O . State its measured fluorescence, % of fluorescent control.
### Response inactive

----------
target: Cytochrome P450 2C9 (Homo sapiens); test: Cytochrome P450 Family 2 Subfamily C Member 9 (CYP2C9) small molecule antagonists: luciferase reporter qHTS assay (AID 1671198); conditions: P450-Glo CYP2C9 enzyme assay, luciferin luminescence; series mostly up to 115 µM; also: % is scaled to controls: 0 for no effect and ±100 for the full control effect; nearly all actives have a fitted effect of over 50% in size
Records with an inconclusive call do not appear. The source made the active and inactive calls. Calls come from the whole dose curve; as a rule, active = well fitted inhibition curve with a large enough effect in the repeat runs; inconclusive = weak or mixed curves; inactive = no such curve, though single readings can be large or run the other way.
Parameter Measured: activity change, negative = inhibition

Here are 4 molecules together with their reported answers.
- CC(C)Cn1cnc2c(N)nc3ccccc3c21: -3.29% [at 23.6 µM] (inactive)
- C[C@H]1NCc2cc(-c3ccc4c(=O)c(C(=O)O)cn(C5CC5)c4c3OC(F)F)ccc21: 0.717% [at 23.6 µM] (inactive)
- COc1cc2nc(N3CCN(C(=O)c4ccco4)CC3)nc(N)c2cc1OC: 1.12% [at 23.6 µM] (inactive)
- NC[C@H]1O[C@H](O[C@H]2[C@H](O[C@@H]3O[C@H](CO)[C@@H](O)[C@H]3O)C(O)[C@H](N)C[C@@H]2N)[C@H](N)[C@@H](O)[C@@H]1O (stereo not given in full): 2.46% [at 10.5 µM] (inactive)

### Prompt Consider the molecule C[C@@H](O)[C@H](N)C(=O)O . State its measured activity change, negative = inhibition.
### Response 17.9% [at 23.6 µM] (inactive)

----------
experiment: qHTS assay for identifying genotoxic compounds that show differential cytotoxicity against isogenic chicken DT40 cell lines with known DNA damage response pathways - Rev3 mutant cell line (AID 743014); conditions: chicken DT40 Rev3-/- viability, CellTiter-Glo, 40 h; series mostly up to 68.4 µM; also: nearly all actives have a fitted effect of over 55% in size
Results filed as inconclusive are left out. Calls of active or inactive are those of the source. Calls follow the shape of the dose curve; as a rule, active = well fitted cell-killing curve with a large enough effect in the repeat runs; inconclusive = weak or mixed curves, or effect the other way; inactive = no such curve, though single readings can be large or run the other way.
Lab note: assign the record to one of active, inactive

As a guide, the following entries are already answered.
- CC(C(=O)O)c1ccc2c(c1)[nH]c1ccc(Cl)cc12 (configuration not stated): inactive
- O=C(O)c1cccc(C(F)(F)F)c1: inactive
- COC1=C(OC)C(=O)C(CCCCCCCCCCO)=C(C)C1=O: active
- O[C@@H]([C@H](O)[C@H](O)CBr)[C@H](O)CBr: inactive
- CCc1ccc(Br)cc1: inactive

### Prompt Hey, what did the test say about CN1CCN(Cc2cc(-c3ccc4[nH]c(=O)oc4c3)co2)[C@@H](c2ccc(F)cc2)C1 ?
### Response active

### Prompt Hey, what did the test say about O=[N+]([O-])c1ccc(F)c(Cl)c1 ?
### Response inactive

### Prompt Hey, what did the test say about CC1=Nc2ccccc2C1(C)C ?
### Response inactive

### Prompt Hey, what did the test say about CCCCCC/C=C\CCCCCCCC(=O)O ?
### Response inactive

### Prompt Hey, what did the test say about C#C[C@]1(OC(C)=O)CC[C@H]2[C@@H]3CCC4=C/C(=N/O)CC[C@@H]4[C@H]3CC[C@@]21CC ?
### Response active

### Prompt Hey, what did the test say about CCC(C)n1ncn(-c2ccc(N3CCN(c4ccc(OC[C@H]5CO[C@](Cn6cncn6)(c6ccc(Cl)cc6Cl)O5)cc4)CC3)cc2)c1=O (some centres not stated) ?
### Response active

### Prompt Hey, what did the test say about CC(CCc1ccccc1)NCC(O)c1ccc(O)c(C(N)=O)c1 (configuration not stated) ?
### Response inactive

----------
experiment: qHTS assay to identify small molecule antagonists of the farnesoid-X-receptor (FXR) signaling pathway - cell viability counter screen (AID 743221); details: FXR-bla HEK293T viability, CellTiter-Glo luminescence, 16 h; series mostly up to 62.6 µM; also: nearly all actives have a fitted effect of over 50% in size
Inconclusive results are not listed. Active and inactive are the calls of the source. Calls follow the shape of the dose curve; as a rule, active = well fitted cell-killing curve with a large enough effect in the repeat runs (not every such curve was filed as active); inconclusive = weak or mixed curves, or effect the other way; inactive = no such curve, though single readings can be large or run the other way.
Lab note: assign the record to one of Yes = active, No = inactive

As a guide, the following entries are already answered.
* c1ccsc1 | No
* CC(C)Cn1cnc2c(N)nc3ccccc3c21 | No
* Cc1cc(C(C)(C)C)c(O)c(C)c1Cn1c(=O)n(Cc2c(C)cc(C(C)(C)C)c(O)c2C)c(=O)n(Cc2c(C)cc(C(C)(C)C)c(O)c2C)c1=O | No
* Cc1cc(C(C#N)c2ccc(Cl)cc2)c(Cl)cc1NC(=O)c1cc(I)cc(I)c1O (stereo not given) | Yes

Could you now look at the following compound, please?
### Prompt Hey, what did the test say about CC[N+](CC)(CC)CCOC(=O)C(C1CCCC1)C1CCCC1 ?
### Response No

----------
assay: Caspase-3/7 induction in HepG2 cells by small molecules, qHTS cell viability counter screen (AID 1346981); conditions: CellTiter-Fluor fluorescence, 17 h; series mostly up to 92.4 µM; also: nearly all actives have a fitted effect of over 30% in size
Records with an inconclusive call do not appear. Active and inactive are the calls of the source. The call rests on the fitted dose curve; in most records, active means well fitted cell-killing curve with a large enough effect in the repeat runs; inconclusive means weak or mixed curves, or effect the other way; inactive means flat fitted curve, though single readings scatter.
Lab note: assign the record to one of active, inactive

As a guide, the following entries are already answered.
* Cc1cccc(C)c1NC(=O)c1ccc(N)cc1 | inactive
* OC[C@H]1O[C@H](O[C@H]2O[C@H](CO)[C@@H](O)[C@H](O)[C@H]2O)[C@H](O)[C@@H](O)[C@@H]1O | inactive
* OCC(F)(F)F | inactive
* CCC(CC)C(C)CCOC(C)=O (stereo unspecified) | inactive
* [Cl][Pt-2]([Cl])([Cl])[Cl] | inactive

### Prompt Hey, what did the test say about OC1CCCc2ccccc21 (stereo unspecified) ?
### Response inactive

### Prompt Hey, what did the test say about C=C(CC)C(=O)c1ccc(OCC(=O)O)c(Cl)c1Cl ?
### Response active
